B1: NP_006221.1 (parent)
chain: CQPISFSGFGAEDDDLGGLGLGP

# Variants of: B1
# experiment-description: protein stability index of a GFP-peptide fusion (GPS, HEK-293T) (PSI 1-6); higher = more stable;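 also: lentivirally expressed fusion library, cells FACS-sorted into six equal-sized GFP/DsRed ratio bins, PSI computed from sequencing read fractions per bin weighted by bin number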
# experimental-setup: c terminus: native
measured-attribute: protein stability index
Please reply with the value in numeric form only.

sequence_data="CQPISFSGFGAEDNDLGGLGLGP [D14N]" measured_attribute="protein stability index" assay_result=2.33
sequence_data="CQPSSFSGFGAEDDDLGGLGLGP [I4S]" measured_attribute="protein stability index" assay_result=2.31
sequence_data="CQPISFSGFGAEDDDLGGLTLGP [G20T]" measured_attribute="protein stability index" assay_result=3.68
sequence_data="CQPISFSGFGDEDDDLGGLGLGP [A11D]" measured_attribute="protein stability index" assay_result=2.37
sequence_data="CQPISFSGFGAEDDDLDGLGLGP [G17D]" measured_attribute="protein stability index" assay_result=2.33
sequence_data="CQPISFSGFGAEDDDLGGLGLAP [G22A]" measured_attribute="protein stability index" assay_result=2.29
sequence_data="CQPISTSGFGAEDDDLGGLGLGP [F6T]" measured_attribute="protein stability index" assay_result=3.93
sequence_data="CQPISFSGFGAEDDDLPGLGLGP [G17P]" measured_attribute="protein stability index" assay_result=2.05

Problem: # get_value(readout='protein stability index', item= CQPISFSGFGAEDDDTGGLGLGP [L16T] )
Result: 2.35

Problem: Also CQPISFSGFGAGDDDLGGLGLGP [E12G] , if possible.
Result: 2.5

Problem: Repeat for the following variant: CQPISFSGFGAEDDDLGGLGLDP [G22D]
Result: 2.15

Problem: Cool, now CQPISFSGFGAEDGDLGGLGLGP [D14G]
Result: 2.13

Problem: Entry CQPINFSGFGAEDDDLGGLGLGP [S5N] please
Result: 2.4
